B1: POU domain, class 4, transcription factor 2, residues 256 to 327; numbered along this chain, Q12837 (parent)
chain: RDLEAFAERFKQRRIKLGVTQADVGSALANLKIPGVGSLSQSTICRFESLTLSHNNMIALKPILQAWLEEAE

- Variants of: B1
- test protocol: abundance fitness (aPCA) (normalised: wild type 0, dead -1); higher = more abundant; growth selection in yeast, the domain comes from the species named
- settings: Homo sapiens
param class (str): category from abundance fitness; see ranges lower band: < -0.5; central band: ≥ -0.5 and < -0.2; upper band: ≥ -0.2

See these solved cases before continuing.
{"columns": ["variant annotation", "discrete label"],
 "data": [
  ["N30E", "central band"],
  ["I63R", "central band"],
  ["I33S", "central band"],
  ["S40M", "lower band"],
  ["P62H", "central band"],
  ["S26A", "upper band"],
  ["P34R", "central band"],
  ["E70R", "upper band"],
  ["R14T", "lower band"],
  ["E48G", "lower band"]
]}

[ask] Which abundance fitness category applies to "L52D" here?
[reply] central band

[ask] Which abundance fitness category applies to "I44Y" here?
[reply] upper band

[ask] Which abundance fitness category applies to "Q21E" here?
[reply] central band

[ask] Which abundance fitness category applies to "L50N" here?
[reply] upper band
